# credit: patent US8293774B2

Catalogue of pest or weed control at 25 g/ha readings, one per entry.
Tested on: ECHOG (Echinoch crus-galli Beauv. var. caudata Kitagawa, barnyard grass)
Experiment: Weed control test, foliage treatment (Test Example 1, Table 7)
Type: in vivo
Settings: Echinochloa crus-galli, foliar, 3-leaf stage, 0.025 kg/ha, read-out: Plant damage (herbicidal activity), visually evaluated, ECHOG
Numbers only here, please. The scale is %.

Respond only with pest or weed control at 25 g/ha recorded for C[C@@H](Oc1ccc(Oc2nc3ccc(Cl)cc3o2)cc1)C(=O)Nc1nc2ccccc2s1 [Example 5] 95

Respond only with pest or weed control at 25 g/ha recorded for COc1ccc2nc(N(C)C(=O)[C@@H](C)Oc3ccc(Oc4nc5ccc(Cl)cc5o4)cc3)sc2c1 [Example 14] 0

Respond only with pest or weed control at 25 g/ha recorded for C[C@@H](Oc1ccc(Oc2ccc(C#N)cc2F)cc1)C(=O)Nc1nccs1 [Example 31] 0

Respond only with pest or weed control at 25 g/ha recorded for Cc1cc(NC(=O)[C@@H](C)Oc2ccc(Oc3ccc(C#N)cc3F)cc2)n(C)n1 [Example 29] 20

Respond only with pest or weed control at 25 g/ha recorded for Cc1ccc2nc(N(C)C(=O)[C@@H](C)Oc3ccc(Oc4ccc(C#N)cc4F)cc3)sc2c1 [Example 26] 0

Next:
Respond only with pest or weed control at 25 g/ha recorded for C[C@@H](Oc1ccc(Oc2nc3ccc(Cl)cc3o2)cc1)C(=O)N(C)c1nc2ccccc2s1 [Example 6] 0

Respond only with pest or weed control at 25 g/ha recorded for Cc1ccc(C=C(F)Oc2ccc(O[C@H](C)C(=O)Nc3ccccc3F)cc2)cc1 [Example 41] 0

Respond only with pest or weed control at 25 g/ha recorded for COc1ccc2nc(NC(=O)[C@@H](C)Oc3ccc(Oc4nc5ccc(Cl)cc5o4)cc3)sc2c1 [Example 13] 70

Respond only with pest or weed control at 25 g/ha recorded for COc1ccc2nc(NC(=O)[C@@H](C)Oc3ccc(Oc4ccc(C#N)cc4F)cc3)sc2c1 [Example 27] 20

* * *

System: SORBI (Andropogon sorghum, common sorgum)
Test: Weed control test, foliage treatment (Test Example 1, Table 7)
Assay type: in vivo
Details: Sorghum bicolor, foliar, 0.025 kg/ha, read-out: Plant damage (herbicidal activity), visually evaluated, SORBI
// assign 1 if pest or weed control at 25 g/ha falls strictly below 10%, else 0 (ties count as 0)

Item COc1ccc2nc(NC(=O)[C@@H](C)Oc3ccc(Oc4ccc(C#N)cc4F)cc3)sc2c1 [Example 27] : pest or weed control at 25 g/ha beneath 10%, strictly? 1

Item C[C@@H](Oc1ccc(OC(F)=Cc2ccc(F)cc2)cc1)C(=O)Nc1nc2cc(Cl)ccc2o1 [Example 52] : pest or weed control at 25 g/ha beneath 10%, strictly? 1

Item C[C@@H](Oc1ccc(OC(F)=Cc2ccccc2)cc1)C(=O)N(C)c1ccccc1F [Example 37] : pest or weed control at 25 g/ha beneath 10%, strictly? 1

Next:
Item C[C@@H](Oc1ccc(Oc2nc3ccc(Cl)cc3o2)cc1)C(=O)Nc1nc2cc(Cl)ccc2o1 [Example 1] : pest or weed control at 25 g/ha beneath 10%, strictly? 0

Item C[C@@H](Oc1ccc(C(F)=C(c2ccc(F)cc2)C(F)(F)F)cc1)C(=O)Nc1ccccc1F [Example 40] : pest or weed control at 25 g/ha beneath 10%, strictly? 1
